Biological target: Human complement C1s enzyme (Homo sapiens)
Construct: purified from human serum, Complement Technology, Inc
Sequence (P09871 438-688 limits assumed): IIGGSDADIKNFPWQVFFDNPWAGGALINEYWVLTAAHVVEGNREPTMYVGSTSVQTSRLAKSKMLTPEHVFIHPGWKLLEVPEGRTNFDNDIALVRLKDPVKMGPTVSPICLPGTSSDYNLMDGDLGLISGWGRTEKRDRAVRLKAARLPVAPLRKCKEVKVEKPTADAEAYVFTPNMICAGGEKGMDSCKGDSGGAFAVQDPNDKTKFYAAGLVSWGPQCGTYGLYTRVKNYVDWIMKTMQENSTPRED
Sequence (P09871 16-437 partner limits assumed): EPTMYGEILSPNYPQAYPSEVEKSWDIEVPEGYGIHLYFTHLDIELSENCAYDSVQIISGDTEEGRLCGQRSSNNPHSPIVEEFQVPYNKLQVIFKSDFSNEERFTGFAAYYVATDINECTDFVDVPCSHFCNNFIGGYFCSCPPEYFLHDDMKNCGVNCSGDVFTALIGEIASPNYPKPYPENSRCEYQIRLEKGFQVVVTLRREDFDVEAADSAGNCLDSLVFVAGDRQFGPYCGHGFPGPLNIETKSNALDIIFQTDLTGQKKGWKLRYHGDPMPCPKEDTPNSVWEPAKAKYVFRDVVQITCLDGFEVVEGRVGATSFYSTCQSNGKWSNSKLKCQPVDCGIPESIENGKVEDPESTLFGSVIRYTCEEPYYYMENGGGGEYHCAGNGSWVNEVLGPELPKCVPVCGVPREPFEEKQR
Assay: Human C1s enzyme assay
Details: human complement C1s enzyme 1.16 nM, substrate Z-L-Lys-SBzl, A405; read-out: IC50 (Stars)
Collected IC50 values appear next to each entry.

Previously resolved entries follow.
>>> obs_value("O=C(Cn1c(-c2ccccc2)ncc(NCCCc2ccc(Cl)cc2)c1=O)NCc1cc2cnccc2[nH]1")
"< 100 nM"
>>> obs_value("O=C(Cn1c(-c2cccnc2)ncc(NCc2ccc3oc4ccccc4c3c2)c1=O)NCc1cc2cnccc2[nH]1")
"< 100 nM"
>>> obs_value("C[C@@H](Nc1cnc(-c2ccccc2F)n(CC(=O)NCc2cc3cnccc3[nH]2)c1=O)c1ccc2c(c1)oc1ccccc12")
"< 100 nM"

Give its IC50 value. Item: O=C(Cn1c(N2CCOCC2)ncc(NCc2ccc3oc4ccccc4c3c2)c1=O)NCc1cc2cnccc2[nH]1
< 100 nM

Give its IC50 value. Item: C[C@@H]1CN(c2ncc(N[C@H](C)c3ccc4oc5ccccc5c4c3)c(=O)n2CC(=O)NCc2cc3cnccc3[nH]2)C[C@H](C)O1
100 to 1000 nM

Give its IC50 value. Item: N#Cc1c(NCCCc2ccccc2)ccc(-c2ccccc2)c1CC(=O)NCc1cc2cnccc2[nH]1
< 100 nM

Give its IC50 value. Item: C[C@@H](Nc1cnc(-c2ccccc2F)n([C@@H](C)C(=O)NCc2cc3cnccc3[nH]2)c1=O)c1ccc2oc3ccccc3c2c1 (single isomer, unassigned)
> 1000 nM

Give its IC50 value. Item: O=C(Cn1c(N2CCOCC2)ncc(NC(=O)c2ccc(Oc3ccccc3)cc2)c1=O)NCc1cc2cnccc2[nH]1
< 100 nM
